Tested on: Vero E6 infected with SARS-CoV-2
PROTOCOL_SUMMARY: inhibition of SARS-CoV-2 cytopathic effect; higher = more antiviral protection, active = above 15
CONDITION: 8.33 nM; 48 h
Quick list: inhibition of SARS-CoV-2 cytopathic effect per entry.
REPORTED_PROPERTY: inhibition of SARS-CoV-2 cytopathic effect (%)

COMPOUND	SYSTEM_UNDER_TEST	RESULT_UNIT	OBSERVED_MEASUREMENT
CC1(C)C[C@@H]1C(=O)N/C(=C\CCCCSC[C@H](N)C(=O)O)C(=O)O [Cilastatin Sodium]	Vero E6 infected with SARS-CoV-2	%	3.44
CN1CCc2cc3c(cc2[C@H]1[C@@H]1OC(=O)c2c1ccc1c2OCO1)OCO3 [bicuculline-(+)]	Vero E6 infected with SARS-CoV-2	%	1.6
CO[C@H]1/C=C/O[C@@]2(C)Oc3c(C)c(O)c4c(O)c(c(/C=N/N5CCN(C6CCCC6)CC5)c(O)c4c3C2=O)NC(=O)/C(C)=C\C=C\[C@H](C)[C@H](O)[C@@H](C)[C@@H](O)[C@@H](C)[C@H](OC(C)=O)[C@@H]1C [rifapentine]	Vero E6 infected with SARS-CoV-2	%	-0.78
